# System Under Test: recombinant cynomolgus CD33 protein (NovoProtein) (cynomolgus)
# Sequence (chain, as listed by the source limits assumed): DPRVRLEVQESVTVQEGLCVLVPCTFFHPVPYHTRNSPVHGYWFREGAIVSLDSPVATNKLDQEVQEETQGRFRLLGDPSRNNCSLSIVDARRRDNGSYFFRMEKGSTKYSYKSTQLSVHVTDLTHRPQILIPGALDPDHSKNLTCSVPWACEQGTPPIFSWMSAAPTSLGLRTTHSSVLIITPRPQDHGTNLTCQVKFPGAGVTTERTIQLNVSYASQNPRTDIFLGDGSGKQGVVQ
# Test: ELISA, plate coated with recombinant CD33
Test Readout: Relative maximal binding (cyno/human)
Please give only the number in your answer, with no unit.

Just so you know, measured Relative maximal binding (cyno/human) for anti-CD33 antibody 6C7H33 (antibody, V domains shown) VH: EVQLVESGGGLVQPGGSLRLSCAASGSTFSEYDMLWVRQAPGKGLEWVGEIRLKSNNYVTNYAASVKGRFTISRDDSKNSVYLQMNSLKTEDTGVYYCTRAGYYVPFAYWGQGTLVTVSS VL: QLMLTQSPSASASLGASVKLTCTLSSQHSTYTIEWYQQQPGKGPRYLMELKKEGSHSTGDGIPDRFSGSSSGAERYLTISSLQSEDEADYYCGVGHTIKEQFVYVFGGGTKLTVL came out at 0.01
